Entries and their fold change of Cadaverine concentration
- Tested on: Escherichia coli IAI1
- run-description: fold change of Cadaverine concentration vs plate DMSO controls (fold change (ratio)); higher = more amine produced, active = hit call of the paper (significant change in both replicates, either direction)
- condition-details: incubation time: 27 h, anaerobic, 37 °C
Structures can show the parent of a compound that is named as a salt.
Keep the answer to the number alone.

Examples with answers:
compound="CNC1(C)C2CCC(C2)C1(C)C (centres undefined) [Mecamylamine hydrochloride] (20 µM)" parameter_measured="fold change of Cadaverine concentration" result_number=0.968
compound="O=c1cc(-c2ccc(O)c(O)c2)oc2cc(O)cc(O)c12 [Luteolin] (20 µM)" parameter_measured="fold change of Cadaverine concentration" result_number=1.03
compound="O=C(O)c1cccnc1 [Niacin] (20 µM)" parameter_measured="fold change of Cadaverine concentration" result_number=0.981

[ask] // lookup fold change of Cadaverine concentration for CCOc1ccc(NC(C)=O)cc1 [Phenacetin] (20 µM)
[reply] 0.997

[ask] Then CN(C)CCOC1=Cc2ccccc2Sc2ccc(Cl)cc21 [Zotepine] (20 µM) ?
[reply] 1.05

[ask] Then C=C(C)[C@@H]1CC=C(/C=N/O)CC1 [Perillartine] (50 µM) ?
[reply] 0.99

[ask] Then Cc1cccc(C)c1NC(=O)CN1CCN(CCCC(c2ccc(F)cc2)c2ccc(F)cc2)CC1 [Lidoflazine] (20 µM) ?
[reply] 0.995

[ask] Then Cc1c(N(C)CS(=O)(=O)O)c(=O)n(-c2ccccc2)n1C [Dipyrone sodium salt] (20 µM) ?
[reply] 0.991

[ask] Then CCC1(c2ccccc2)C(=O)NCNC1=O [Primidone] (20 µM) ?
[reply] 0.999

----------
- Tested on: Klebsiella aerogenes DSM 30053
- run-description: growth (OD595) fold change vs plate DMSO controls (fold change (ratio)); higher = more growth
- condition-details: incubation time: 27 h, anaerobic, 37 °C
Where a name gives a salt, the structure may show the parent alone.
parameter-measured: growth
Keep the answer to the number alone.

molecule="COc1cc(N)c(Cl)cc1C(=O)NC1CCN(Cc2ccccc2)CC1 [Clebopride maleate] (20 µM)" parameter_measured=growth result_number=0.981
molecule="CN(C)CCC=C1c2ccccc2C=Cc2ccccc21 [Cyclobenzaprine hydrochloride] (20 µM)" parameter_measured=growth result_number=0.985
molecule="CN1CCN(C2Cc3ccccc3Sc3ccc(Cl)cc32)CC1 (centres undefined) [Octoclothepin maleate salt] (20 µM)" parameter_measured=growth result_number=0.941

[ask] Requested read-out growth, target or system Klebsiella aerogenes DSM 30053, entry Clc1ccc(COC(Cn2ccnc2)c2ccc(Cl)cc2Cl)cc1 (centres undefined) [Econazole nitrate] (20 µM)
[reply] 1.08

[ask] Then CCOC(=O)C1=C[C@@H](OC(CC)CC)[C@H](NC(C)=O)[C@@H](N)C1 [Oseltamivir phosphate] (20 µM) ?
[reply] 1.01

[ask] Then Cc1cc2nc3c(=O)[nH]c(=O)nc-3n(C[C@H](O)[C@H](O)[C@H](O)CO)c2cc1C [Riboflavine] (20 µM) ?
[reply] 0.997

[ask] Then OC(CCN1CCCC1)(c1ccccc1)C1CCCCC1 (centres undefined) [Procyclidine hydrochloride] (20 µM) ?
[reply] 1.02

[ask] Then CCC[C@H](N[C@@H](C)C(=O)N1[C@H](C(=O)O)C[C@@H]2CCCC[C@@H]21)C(=O)OCC [Perindopril] (20 µM) ?
[reply] 1.05

[ask] Then CN1CCN(C(c2ccccc2)c2ccc(Cl)cc2)CC1 (centres undefined) [Chlorcyclizine hydrochloride] (20 µM) ?
[reply] 0.997

[ask] Then CN(C)c1cc(NC(=O)CNC(C)(C)C)c(O)c2c1C[C@H]1C[C@H]3[C@H](N(C)C)C(=O)C(C(N)=O)=C(O)[C@@]3(O)C(=O)C1=C2O [Tigecycline] (20 µM) ?
[reply] 1.18

[ask] Then C[N+]1(CCCCC[N+]2(C)CCCC2)CCCC1 [Pentolinium bitartrate] (20 µM) ?
[reply] 1.01

[ask] Then Cc1ccc(S(=O)(=O)NCl)cc1 [Chloramine-T hydrate] (20 µM) ?
[reply] 1.11

[ask] Then CN1CCN(C2=Nc3ccccc3Oc3ccc(Cl)cc32)CC1 [Loxapine succinate] (20 µM) ?
[reply] 1.04

[ask] Then NCC[C@H](O)C(=O)N[C@@H]1C[C@H](N)[C@@H](O[C@H]2O[C@H](CN)[C@@H](O)[C@H](O)[C@H]2O)[C@H](O)[C@H]1O[C@H]1O[C@H](CO)[C@@H](O)[C@H](N)[C@H]1O [Amikacin hydrate] (20 µM) ?
[reply] 0.78

----------
- System: Clostridium sporogenes DSM 1664
- run-description: fold change of Tryptamine concentration vs plate DMSO controls (fold change (ratio)); higher = more amine produced, active = hit call of the paper (significant change in both replicates, either direction)
- condition-details: incubation time: 27 h, anaerobic, 37 °C
Where a name gives a salt, the structure may show the parent alone.
parameter-measured: fold change of Tryptamine concentration

compound="Cc1cnc(C(=O)O)c[n+]1[O-] [Acipimox] (20 µM)" parameter_measured="fold change of Tryptamine concentration" result="0.952 (inactive)"
compound="O=C(NCCN1CCOCC1)c1ccc(Cl)cc1 [Moclobemide] (20 µM)" parameter_measured="fold change of Tryptamine concentration" result="1.04 (inactive)"
compound="CC1=C(/C=C/C(C)=C/C=C/C(C)=C/C(=O)O)C(C)(C)CCC1 [Retinoic acid] (20 µM)" parameter_measured="fold change of Tryptamine concentration" result="1.03 (inactive)"
compound="Cc1ncc(CO)c(CO)c1O [Pyridoxine hydrochloride] (20 µM)" parameter_measured="fold change of Tryptamine concentration" result="1.05 (inactive)"

Let us examine a further case.
[ask] Requested read-out fold change of Tryptamine concentration, target or system Clostridium sporogenes DSM 1664, entry CC(C)NCC(O)COc1ccc(COCCOC(C)C)cc1 (stereo not given) [Bisoprolol hemifumarate] (20 µM)
[reply] 1.2 (inactive)

----------
Entries and their fold change of Cadaverine concentration
- Tested on: Klebsiella aerogenes DSM 30053
- run-description: fold change of Cadaverine concentration vs plate DMSO controls (fold change (ratio)); higher = more amine produced, active = hit call of the paper (significant change in both replicates, either direction)
- condition-details: incubation time: 27 h, anaerobic, 37 °C
Structures can show the parent of a compound that is named as a salt.
Keep the answer to the number alone.

Examples with answers:
compound="c1ccc(C2CN3CCSC3=N2)cc1 (stereo not drawn) [Tetramisole hydrochloride] (20 µM)" result_number=0.992
compound="CC(=O)OCC(=O)[C@@]1(O)CC[C@H]2[C@@H]3CCC4=CC(=O)C=C[C@]4(C)[C@@]3(Cl)[C@@H](Cl)C[C@@]21C [Dichlorisone acetate] (20 µM)" result_number=1

Let us examine a further case.
[ask] // lookup fold change of Cadaverine concentration for CC(Oc1ccccc1)C(=O)N[C@@H]1C(=O)N2[C@@H]1SC(C)(C)[C@@H]2C(=O)O (stereo partly drawn) [Phenethicillin potassium salt] (20 µM)
[reply] 1.02

----------
- Test system: Clostridium sporogenes DSM 1664
- run-description: growth (OD595) fold change vs plate DMSO controls (fold change (ratio)); higher = more growth
- condition-details: incubation time: 27 h, anaerobic, 37 °C
Where a name gives a salt, the structure may show the parent alone.
Mark TRUE for reported growth of 1 or greater; mark FALSE for anything smaller.

The following compounds have reported results that may help.
compound="CCCCN(CCCC)CCCOC(=O)c1ccc(N)cc1 [Butacaine] (20 µM)" target_desc="Clostridium sporogenes DSM 1664" class_name=TRUE
compound="O=C(Nc1ccc([N+](=O)[O-])cc1Cl)c1cc(Cl)ccc1O [Niclosamide] (20 µM)" target_desc="Clostridium sporogenes DSM 1664" class_name=FALSE
compound="C=CCOc1ccccc1OCC(O)CNC(C)C (configuration not stated) [Oxprenolol hydrochloride] (20 µM)" target_desc="Clostridium sporogenes DSM 1664" class_name=FALSE
compound="OC(CNCC(O)C1CCc2cc(F)ccc2O1)C1CCc2cc(F)ccc2O1 (configuration not stated) [Nebivolol hydrochloride] (20 µM)" target_desc="Clostridium sporogenes DSM 1664" class_name=TRUE
compound="CCCCNc1ccc(C(=O)OCCN(C)C)cc1 [Tetracaine hydrochloride] (20 µM)" target_desc="Clostridium sporogenes DSM 1664" class_name=TRUE
compound="CCC(C)n1ncn(-c2ccc(N3CCN(c4ccc(OCC5COC(Cn6cncn6)(c6ccc(Cl)cc6Cl)O5)cc4)CC3)cc2)c1=O (configuration not stated) [Itraconazole] (20 µM)" target_desc="Clostridium sporogenes DSM 1664" class_name=TRUE
compound="CC(COc1ccccc1)N(CCCl)Cc1ccccc1 (configuration not stated) [Phenoxybenzamine hydrochloride] (20 µM)" target_desc="Clostridium sporogenes DSM 1664" class_name=FALSE
compound="CC(C)(C)c1ccc(C(=O)CCCN2CCC(OC(c3ccccc3)c3ccccc3)CC2)cc1 [Ebastine] (20 µM)" target_desc="Clostridium sporogenes DSM 1664" class_name=TRUE

[ask] For this compound, is measured growth 1 or higher? C#C[C@]1(OC(C)=O)CC[C@H]2[C@@H]3CCC4=C[C@@H](OC(C)=O)CC[C@@H]4[C@H]3CC[C@@]21C [Ethynodiol diacetate] (20 µM)
[reply] FALSE

[ask] Then N#Cc1ccc(Oc2ccc3c(c2)COB3O)cc1 [Crisaborole] (20 µM) ?
[reply] TRUE

[ask] Then COC(=O)[C@H](Cc1ccccc1)NC(=O)[C@@H](N)CC(=O)O [Aspartame] (50 µM) ?
[reply] TRUE

[ask] Then C[n+]1ccccc1/C=N/O [Pralidoxime chloride] (20 µM) ?
[reply] TRUE

[ask] Then CC(C(=O)O)c1ccc2c(c1)[nH]c1ccc(Cl)cc12 (configuration not stated) [Carprofen] (20 µM) ?
[reply] TRUE
